Assay: qHTS assay to identify small molecule agonists of the AP-1 signaling pathway - cell viability counter screen (AID 1159525); also: nearly all actives have a fitted effect of over 55% in size
Settings: ME-180 (cervical carcinoma) AP-1-bla cells viability, ATP luminescence, 5 h; series mostly up to 76.8 µM
Experimental: National Center for Advancing Translational Sciences [NCATS] NIH Chemical Genomics Center [NCGC] U.S. Environmental Protection Agency [EPA] National Institutes of Environmental Health Sciences [NIEHS] National Toxicology Program [NTP] […] After the plates were read for Beta-Lactamase assay on Envision; 3 ul Cell Titer Glo (Promega) was added to measure the cytotoxicity and the plates were then incubated at RT in dark for 30 min. […] ViewLux data was expressed as relative luminescence units. […]
Records with an inconclusive call do not appear. Activity calls are given as the source filed them. Calls follow the shape of the full dose curve.
measured_metric: viability change, negative = cytotoxic

| compound | val |
| --- | --- |
| CCC(C)NC(N)=O (centres undefined) | inactive |
| CC(CN)CC(C)(C)CCN (centres undefined) | inactive |
| CC(=O)Nc1ccc(S(=O)(=O)Nc2ccc([N+](=O)[O-])cc2)cc1 | inactive |
| CC1COc2ccccc2N1 (centres undefined) | inactive |
| c1ccc2nccnc2c1 | inactive |
| N[C@@H](CCC(=O)Nc1ccc([N+](=O)[O-])cc1)C(=O)O | inactive |
| CN(C)c1ccc(C=O)cc1 | inactive |
| COC(=O)CCCCCCCC(=O)OC | inactive |
| COc1ccc2c(c1)C(=O)N(CCc1ccc(S(=O)(=O)NC(=O)NC3CCCCC3)cc1)C(=O)C2(C)C | inactive |
| CC/C=C\CC1=C(C)CCC1=O | inactive |
| Nc1cccc(O)c1 | inactive |
| Oc1ccccc1-c1nnco1 | inactive |
| NNc1nnc(NN)c2ccccc12 | inactive |
| Cc1cc2cc3c(C)cc(=O)oc3c(C)c2o1 | inactive |
| Cc1ccccc1OCC(O)CO (centres undefined) | inactive |
| Cc1nc2n(c(=O)c1CCN1CCC(c3noc4cc(F)ccc34)CC1)CCC[C@H]2O | 2.97% [at 15.8 µM] (inactive) |
| CC(C)CCCC(C)(C)O | inactive |
| O=C(OCC(O)CO)c1ccccc1Nc1ccnc2c(C(F)(F)F)cccc12 (centres undefined) | inactive |
| ClCCCl | inactive |
| CC1=C(C(=O)O)N2C(=O)[C@@H](NC(=O)[C@H](N)c3ccc(O)cc3)[C@H]2SC1 | inactive |
| C=C(C)C(=O)OCCOP(=O)(O)OCCOC(=O)C(=C)C | inactive |
| O=S(O)(O)=S | 1.76% [at 6.97 µM] (inactive) |
| CCCCCCCCC1CCC(=O)O1 (centres undefined) | inactive |
| CN(C)C(=O)CNC(=O)Cc1ccccc1 | inactive |
| CCCN1C[C@H](CSC)C[C@@H]2c3cccc4[nH]cc(c34)C[C@H]21 | inactive |
| C=C(C)C1CCC(C)(O)CC1 (centres undefined) | inactive |
| CCC(C=O)CC | inactive |
| COc1ccc(C2CNC(=O)C2)cc1OC1CCCC1 (centres undefined) | inactive |
| COc1cc(N)ccc1C | inactive |
